system: Moraxella catarrhalis; assay: Antibacterial activity against Moraxella catarrhalis ATCC 23246 after 24 hrs at 37 degC by CLSI protocol based microdilution method; format: functional; settings: ATCC 23246, 24 h
ASSAY_METRIC: MIC

# example entries with known answers
1) CC[C@H]1OC(=O)[C@H](C)[C@@H](O[C@H]2C[C@@](C)(OC)[C@@H](O)[C@H](C)O2)[C@H](C)[C@@H](O[C@@H]2O[C@H](C)C[C@@H]3NC(=O)O[C@@H]23)[C@](C)(OC)C[C@@H](C)C(=O)N[C@H](C)[C@@H](O)[C@]1(C)O = > 64 mg/L
2) CC[C@H]1OC(=O)[C@H](C)[C@@H](O[C@H]2C[C@@](C)(OC)[C@@H](O)[C@H](C)O2)[C@H](C)[C@@H](O[C@@H]2O[C@H](C)C[C@H](N(C)C)[C@H]2O)[C@](C)(O)C[C@@H](C)CN(C)[C@H](C)[C@@H](O)[C@]1(C)O [AZITHROMYCIN] = < 0.125 mg/L
3) CCCN1C(=O)O[C@H]2[C@H](O[C@@H]3[C@@H](C)[C@H](O[C@H]4C[C@@](C)(OC)[C@@H](O)[C@H](C)O4)[C@@H](C)C(=O)O[C@H](CC)[C@@](C)(O)[C@H](O)[C@@H](C)NC(=O)[C@H](C)C[C@@]3(C)OC)O[C@H](C)C[C@@H]21 = > 64 mg/L
4) CC[C@H]1OC(=O)[C@H](C)[C@@H](O[C@H]2C[C@@](C)(OC)[C@@H](O)[C@H](C)O2)[C@H](C)[C@@H](O[C@@H]2O[C@H](C)C[C@H]3[C@H]2OC(=O)N3Cc2ccccc2)[C@](C)(OC)C[C@@H](C)C(=O)[C@H](C)[C@@H](O)[C@]1(C)O = > 64 mg/L

Quick one: give measured MIC for `CC[C@H]1OC(=O)[C@H](C)[C@@H](O[C@H]2C[C@@](C)(OC)[C@@H](O)[C@H](C)O2)[C@H](C)[C@@H](O[C@@H]2O[C@H](C)C[C@H]3[C@H]2OC(=O)N3CC)[C@](C)(OC)C[C@@H](C)C(=O)[C@H](C)[C@@H](O)[C@]1(C)O`
> 64 mg/L

Quick one: give measured MIC for `CC[C@H]1OC(=O)[C@H](C)[C@@H](O[C@H]2C[C@@](C)(OC)[C@@H](O)[C@H](C)O2)[C@H](C)[C@@H](O[C@@H]2O[C@H](C)C[C@@H]3NC(=O)O[C@@H]23)[C@](C)(O)C[C@@H](C)CN(C)[C@H](C)[C@@H](O)[C@]1(C)O`
> 64 mg/L

Quick one: give measured MIC for `CC[C@H]1OC(=O)[C@H](C)[C@@H](O[C@H]2C[C@@](C)(OC)[C@@H](O)[C@H](C)O2)[C@H](C)[C@@H](O[C@@H]2O[C@H](C)C[C@H]3[C@H]2OC(=O)N3C)[C@](C)(OC)C[C@@H](C)C(=O)N[C@H](C)[C@@H](O)[C@]1(C)O`
> 64 mg/L

Quick one: give measured MIC for `CCCCCCN1C(=O)O[C@H]2[C@H](O[C@@H]3[C@@H](C)[C@H](O[C@H]4C[C@@](C)(OC)[C@@H](O)[C@H](C)O4)[C@@H](C)C(=O)O[C@H](CC)[C@@](C)(O)[C@H](O)[C@@H](C)N(C)C[C@H](C)C[C@@]3(C)O)O[C@H](C)C[C@@H]21`
> 64 mg/L

Quick one: give measured MIC for `CC[C@H]1OC(=O)[C@H](C)[C@@H](O[C@H]2C[C@@](C)(OC)[C@@H](O)[C@H](C)O2)[C@H](C)[C@@H](O[C@@H]2O[C@H](C)C[C@H]3[C@H]2OC(=O)N3C)[C@](C)(OC)C[C@@H](C)C(=O)[C@H](C)[C@@H](O)[C@]1(C)O`
> 64 mg/L

Quick one: give measured MIC for `CC[C@H]1OC(=O)[C@H](C)[C@@H](O[C@H]2C[C@@](C)(OC)[C@@H](O)[C@H](C)O2)[C@H](C)[C@@H](O[C@@H]2O[C@H](C)C[C@H](NC)[C@H]2O)[C@](C)(O)C[C@@H](C)CN(C)[C@H](C)[C@@H](O)[C@]1(C)O`
2 mg/L

Quick one: give measured MIC for `CCCN1C(=O)O[C@H]2[C@H](O[C@@H]3[C@@H](C)[C@H](O[C@H]4C[C@@](C)(OC)[C@@H](O)[C@H](C)O4)[C@@H](C)C(=O)O[C@H](CC)[C@@](C)(O)[C@H](O)[C@@H](C)N(C)C[C@H](C)C[C@@]3(C)O)O[C@H](C)C[C@@H]21`
> 64 mg/L

Quick one: give measured MIC for `CC[C@H]1OC(=O)[C@H](C)[C@@H](O[C@H]2C[C@@](C)(OC)[C@@H](O)[C@H](C)O2)[C@H](C)[C@@H](O[C@@H]2O[C@H](C)C[C@@H]3NC(=O)O[C@@H]23)[C@](C)(OC)C[C@@H](C)C(=O)[C@H](C)[C@@H](O)[C@]1(C)O`
> 64 mg/L

Quick one: give measured MIC for `CC[C@H]1OC(=O)[C@H](C)[C@@H](O[C@H]2C[C@@](C)(OC)[C@@H](O)[C@H](C)O2)[C@H](C)[C@@H](O[C@@H]2O[C@H](C)C[C@H](N)[C@H]2O)[C@](C)(O)C[C@@H](C)CN(C)[C@H](C)[C@@H](O)[C@]1(C)O`
8 mg/L

Quick one: give measured MIC for `CCCN1C(=O)O[C@H]2[C@H](O[C@@H]3[C@@H](C)[C@H](O[C@H]4C[C@@](C)(OC)[C@@H](O)[C@H](C)O4)[C@@H](C)C(=O)O[C@H](CC)[C@@](C)(O)[C@H](O)[C@@H](C)C(=O)[C@H](C)C[C@@]3(C)OC)O[C@H](C)C[C@@H]21`
> 64 mg/L
